experiment-summary: self-splicing fitness, log relative to wild type (ln ratio); higher = more splicing; Tetrahymena group I intron in knt gene, E. coli kanamycin selection, DiMSum; sequences stand for … in CUCUCU…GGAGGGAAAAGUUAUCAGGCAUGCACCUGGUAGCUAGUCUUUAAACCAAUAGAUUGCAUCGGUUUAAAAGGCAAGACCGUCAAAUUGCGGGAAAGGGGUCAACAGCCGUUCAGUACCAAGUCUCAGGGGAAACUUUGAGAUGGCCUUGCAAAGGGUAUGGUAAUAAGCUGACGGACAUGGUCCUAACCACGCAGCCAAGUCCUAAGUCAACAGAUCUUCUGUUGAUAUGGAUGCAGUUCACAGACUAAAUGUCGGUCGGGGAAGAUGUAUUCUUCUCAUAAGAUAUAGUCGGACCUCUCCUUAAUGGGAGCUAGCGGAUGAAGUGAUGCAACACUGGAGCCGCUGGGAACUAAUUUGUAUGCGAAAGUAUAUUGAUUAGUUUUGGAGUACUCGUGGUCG;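 note: selection with 25 µg/mL kanamycin versus none on LB agar overnight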
measurement-parameters: 30 °C
Please go through the items and note down their self-splicing fitness (ln).

AGUGAGCAAUAUUACGUGCC: -2.42
CGGCAGCAAUAUUACGGGGU: -3.58
UCUCAGCAAUAUUACGCAGG: -4.14

Below are 8 sequences. Give each one its self-splicing fitness (ln).
1. AACCAGCAAUAUUACGUAAA
2. CCGUAGCAAUAUUACGCCAC
3. CCAUAGCAAUAUUACGUGUG
4. CCGCAGCAAUAUUACGUUCC
5. GUCUAGCAAUAUUACGCUAG
6. GGAUAGCAAUAUUACGAUGG
7. AAUGAGCAAUAUUACGAUAG
8. GCGAAGCAAUAUUACGUUCC

-1.13
-1.95
-2.23
-3.27
-2.97
-1.27
-3.68
-2.43

Below are 2 sequences. Give each one its self-splicing fitness (ln).
1. UUCAAGCAAUAUUACGGUCU
2. GUGCAGCAAUAUUACGAACG

[-2.89, -2.4]

Below are 2 sequences. Give each one its self-splicing fitness (ln).
1. GAUCAGCAAUAUUACGUCGA
2. GGGAAGCAAUAUUACGCUGG

[-1.35, -2.97]

Below are 6 sequences. Give each one its self-splicing fitness (ln).
1. UUGAAGCAAUAUUACGCUUC
2. UAGUAGCAAUAUUACGAGGU
3. CCCUAGCAAUAUUACGGCUG
4. GGUAAGCAAUAUUACGCCCA
5. CGCGAGCAAUAUUACGACCA
6. UAGCAGCAAUAUUACGUACU

1: -2.86; 2: -2.28; 3: -2.46; 4: -1.68; 5: -1.71; 6: -1.74

---

experiment-summary: self-splicing fitness, log relative to wild type (ln ratio); higher = more splicing; Tetrahymena group I intron in knt gene, E. coli kanamycin selection, DiMSum; sequences stand for … in CUCUCU…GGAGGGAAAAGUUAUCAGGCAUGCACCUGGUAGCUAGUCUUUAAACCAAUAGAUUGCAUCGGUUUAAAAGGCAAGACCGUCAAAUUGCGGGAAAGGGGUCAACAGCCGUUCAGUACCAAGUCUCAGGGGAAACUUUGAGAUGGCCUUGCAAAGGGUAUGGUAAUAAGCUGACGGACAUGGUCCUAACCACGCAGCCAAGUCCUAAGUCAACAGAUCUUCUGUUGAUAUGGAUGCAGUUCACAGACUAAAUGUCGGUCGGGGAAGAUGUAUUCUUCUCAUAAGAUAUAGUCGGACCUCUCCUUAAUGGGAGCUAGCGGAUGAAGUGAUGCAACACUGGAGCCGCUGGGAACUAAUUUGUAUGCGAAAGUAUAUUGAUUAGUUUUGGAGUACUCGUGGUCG
measurement-parameters: 30 °C
result-type: self-splicing fitness (ln)
Numbers only.

Below are 4 sequences. Give each one its self-splicing fitness (ln).
1. UGUUAGCAAUAUUACGACCA
2. UGGAAGCAAUAUUACGCCGA
3. GUACAGCAAUAUUACGACGG
4. CGAAAGCAAUAUUACGAGCA

[0.586, -1.53, -3.75, -2.3]

Below are 4 sequences. Give each one its self-splicing fitness (ln).
1. CUGUAGCAAUAUUACGAGUU
2. UCAAAGCAAUAUUACGUGCU
3. CCCCAGCAAUAUUACGAGAA
4. AAACAGCAAUAUUACGAUCU

[-2.02, -4.45, -3.4, -0.534]

Below are 3 sequences. Give each one its self-splicing fitness (ln).
1. CGAAAGCAAUAUUACGACGG
2. UAGCAGCAAUAUUACGUAUA
3. GAAUAGCAAUAUUACGAGAU

1: 0.0482; 2: -1.89; 3: -3.86

Below are 3 sequences. Give each one its self-splicing fitness (ln).
1. AUUCAGCAAUAUUACGCGUC
2. GUGAAGCAAUAUUACGCGAG
3. UGCCAGCAAUAUUACGUUAA

1. -1.11
2. -0.336
3. -2.48

Below are 5 sequences. Give each one its self-splicing fitness (ln).
1. ACGUAGCAAUAUUACGGAUA
2. CAAGAGCAAUAUUACGCUGC
3. GUAUAGCAAUAUUACGAAAU
4. CUCAAGCAAUAUUACGCACA
5. GGCCAGCAAUAUUACGCCAG

-2.48
-3.4
-3.05
-2.17
-3.88

Below are 2 sequences. Give each one its self-splicing fitness (ln).
1. CAUCAGCAAUAUUACGGAAG
2. GGUCAGCAAUAUUACGAGUC

-0.623
-1.51

---

experiment-summary: self-splicing fitness, log relative to wild type (ln ratio); higher = more splicing; Tetrahymena group I intron in knt gene, E. coli kanamycin selection, DiMSum; sequences stand for … in CUCUCU…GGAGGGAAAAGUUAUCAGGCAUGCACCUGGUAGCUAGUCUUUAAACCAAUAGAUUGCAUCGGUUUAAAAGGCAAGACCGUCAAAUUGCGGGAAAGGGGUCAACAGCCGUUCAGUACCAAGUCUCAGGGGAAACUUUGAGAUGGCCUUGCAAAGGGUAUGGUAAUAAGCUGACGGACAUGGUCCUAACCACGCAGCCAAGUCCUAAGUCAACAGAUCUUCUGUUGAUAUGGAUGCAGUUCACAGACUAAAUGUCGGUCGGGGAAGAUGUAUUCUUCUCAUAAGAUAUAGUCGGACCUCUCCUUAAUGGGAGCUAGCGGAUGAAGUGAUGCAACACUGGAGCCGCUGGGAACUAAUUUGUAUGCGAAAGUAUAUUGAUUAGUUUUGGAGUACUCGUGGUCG
measurement-parameters: 37 °C
result-type: self-splicing fitness (ln)
One number for each entry.

Answered cases to consult:
CUCGAGCAAUAUUACGGUCA: -0.817
UCCUAGCAAUAUUACGUAUC: -2.44
AUCCAGCAAUAUUACGACCU: 0.313

Name the recorded self-splicing fitness (ln) for CUGGAGCAAUAUUACGCCAG .
-2.59

---

experiment-summary: self-splicing fitness, log relative to wild type (ln ratio); higher = more splicing; Tetrahymena group I intron in knt gene, E. coli kanamycin selection, DiMSum; sequences stand for … in CUCUCU…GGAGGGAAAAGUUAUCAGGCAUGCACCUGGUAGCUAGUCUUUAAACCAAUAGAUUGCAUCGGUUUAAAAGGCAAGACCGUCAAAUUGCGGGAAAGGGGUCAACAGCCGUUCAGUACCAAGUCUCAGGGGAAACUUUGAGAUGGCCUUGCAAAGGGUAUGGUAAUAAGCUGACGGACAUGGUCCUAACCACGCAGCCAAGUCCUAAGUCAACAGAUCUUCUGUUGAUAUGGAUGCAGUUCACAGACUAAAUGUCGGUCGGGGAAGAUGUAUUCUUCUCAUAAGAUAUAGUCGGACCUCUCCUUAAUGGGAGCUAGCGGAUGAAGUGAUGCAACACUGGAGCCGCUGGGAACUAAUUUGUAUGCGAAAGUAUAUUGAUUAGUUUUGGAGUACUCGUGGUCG
measurement-parameters: 37 °C
Rule: self-splicing fitness (ln) under -2 gives rule not met, otherwise rule met.

CUAGAGCAAUAUUACGAUGC: rule met
CAACAGCAAUAUUACGUAGG: rule met
AGCGAGCAAUAUUACGAUAA: rule not met
AAGCAGCAAUAUUACGUCAG: rule not met
UGGAAGCAAUAUUACGUCUA: rule met
AUACAGCAAUAUUACGGAUU: rule met
UAUGAGCAAUAUUACGUUAG: rule not met
CAACAGCAAUAUUACGCGCA: rule met
CAGUAGCAAUAUUACGUCCA: rule met
GUUCAGCAAUAUUACGCGUG: rule met

Does the sequence GUGCAGCAAUAUUACGCUAG have recorded self-splicing fitness (ln) that is -2 or more?
rule not met

Does the sequence GUCGAGCAAUAUUACGAUGU have recorded self-splicing fitness (ln) that is -2 or more?
rule met

Does the sequence ACGUAGCAAUAUUACGGGCC have recorded self-splicing fitness (ln) that is -2 or more?
rule met

Does the sequence GUGAAGCAAUAUUACGCAAU have recorded self-splicing fitness (ln) that is -2 or more?
rule met

Does the sequence GUAAAGCAAUAUUACGAGGA have recorded self-splicing fitness (ln) that is -2 or more?
rule met

Does the sequence GACUAGCAAUAUUACGCCGG have recorded self-splicing fitness (ln) that is -2 or more?
rule met

Does the sequence UCCAAGCAAUAUUACGCCUU have recorded self-splicing fitness (ln) that is -2 or more?
rule not met
